Attribution: BigSolDB 2.1

Conditions: in ethyl acetate, 298.15 K
property_measured: solubility (mole fraction)
I only need the number, thanks.

For the compound shown here, CC(C)(c1ccc(O)cc1)c1ccc(O)cc1 , give the reported solubility (mole fraction).
0.251

###

Conditions: in methanol, 273.15 K
property_measured: solubility (mole fraction)
I only need the number, thanks.

For the molecule shown here, CC(C)(c1ccc(O)cc1)c1ccc(O)cc1 , give the reported solubility (mole fraction).
0.187

###

Conditions: in DMF, 283.15 K
property_measured: solubility (mole fraction)
I only need the number, thanks.

For the molecule shown here, CC(C)(c1ccc(O)cc1)c1ccc(O)cc1 , give the reported solubility (mole fraction).
0.324

###

Settings: in methyl acetate, 288.15 K
property_measured: solubility (mole fraction)
I only need the number, thanks.

For the molecule shown here, CC(C)(c1ccc(O)cc1)c1ccc(O)cc1 , give the reported solubility (mole fraction).
0.241

###

Settings: in n-butanol, 288.15 K
property_measured: solubility (mole fraction)
I only need the number, thanks.

For the compound shown here, CC(C)(c1ccc(O)cc1)c1ccc(O)cc1 , give the reported solubility (mole fraction).
0.108

###

Settings: in sec-butanol, 283.15 K
property_measured: solubility (mole fraction)

For the compound shown here, CC(C)(c1ccc(O)cc1)c1ccc(O)cc1 , give the reported solubility (mole fraction).
0.0472

###

Details: in methyl acetate, 303.15 K
property_measured: solubility (mole fraction)
I only need the number, thanks.

For the molecule shown here, CC(C)(c1ccc(O)cc1)c1ccc(O)cc1 , give the reported solubility (mole fraction).
0.253

###

Conditions: in n-butanol, 293.15 K
property_measured: solubility (mole fraction)
I only need the number, thanks.

For the compound shown here, CC(C)(c1ccc(O)cc1)c1ccc(O)cc1 , give the reported solubility (mole fraction).
0.12

###

Conditions: in n-propanol, 293.15 K
property_measured: solubility (mole fraction)
I only need the number, thanks.

For the molecule shown here, CC(C)(c1ccc(O)cc1)c1ccc(O)cc1 , give the reported solubility (mole fraction).
0.2

###

Settings: in ethanol, 273.15 K
property_measured: solubility (mole fraction)
I only need the number, thanks.

For the compound shown here, CC(C)(c1ccc(O)cc1)c1ccc(O)cc1 , give the reported solubility (mole fraction).
0.21

###

Conditions: in acetonitrile, 288.15 K
property_measured: solubility (mole fraction)
I only need the number, thanks.

For the compound shown here, CC(C)(c1ccc(O)cc1)c1ccc(O)cc1 , give the reported solubility (mole fraction).
0.16

###

Conditions: in ethanol, 313.15 K
property_measured: solubility (mole fraction)
I only need the number, thanks.

For the compound shown here, CC(C)(c1ccc(O)cc1)c1ccc(O)cc1 , give the reported solubility (mole fraction).
0.26

###

Conditions: in isopropanol, 313.15 K
property_measured: solubility (mole fraction)
I only need the number, thanks.

For the compound shown here, CC(C)(c1ccc(O)cc1)c1ccc(O)cc1 , give the reported solubility (mole fraction).
0.153

###

Settings: in n-propanol, 283.15 K
property_measured: solubility (mole fraction)
I only need the number, thanks.

For the molecule shown here, CC(C)(c1ccc(O)cc1)c1ccc(O)cc1 , give the reported solubility (mole fraction).
0.188

###

Details: in n-butanol, 298.15 K
property_measured: solubility (mole fraction)
I only need the number, thanks.

For the compound shown here, CC(C)(c1ccc(O)cc1)c1ccc(O)cc1 , give the reported solubility (mole fraction).
0.136
